From: patent US20040009507A1

Target: ferritin (Equus caballus, UniProt P02791+Q8MIP0)
Construct: ferritin (from horse spleen, Sigma cat. F-4503); purchased Sigma F-4503; host or cells: horse spleen
Sequence (P02791 2-175 limits assumed): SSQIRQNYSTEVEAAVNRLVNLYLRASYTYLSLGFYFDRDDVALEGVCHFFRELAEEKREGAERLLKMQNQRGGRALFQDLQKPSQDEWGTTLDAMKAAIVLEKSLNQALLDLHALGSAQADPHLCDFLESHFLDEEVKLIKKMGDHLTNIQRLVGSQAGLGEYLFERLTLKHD
Sequence (Q8MIP0 whole entry): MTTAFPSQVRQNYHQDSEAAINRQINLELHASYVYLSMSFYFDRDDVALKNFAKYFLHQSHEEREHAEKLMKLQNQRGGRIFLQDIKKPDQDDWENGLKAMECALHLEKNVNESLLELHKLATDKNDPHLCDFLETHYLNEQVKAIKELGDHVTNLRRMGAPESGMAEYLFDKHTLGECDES
Experiment: Apparent dissociation constant of n-unit HKPRKE MBP fusions for ferritin
Set-up: species or system horse
Conditions: n-unit of HKPRKE motif fused to maltose-binding protein

substance: (HKPRKE)4 [F6 peptide]
Kd: ~0.5 µM
